- System: mPer2Luc MEF
- PROCEDURE_DETAILS: PER2::LUC luminescence relative to vehicle control (fold of vehicle); higher = higher PER2::LUC reporter signal
- EXPERIMENTAL_SETUP: time after treatment 30 h; 10 µM
Over roughly 5,300 compounds, “PER2::LUC luminescence relative to vehicle control” has its median near 0.96; the highest 2% begin near 1.3. The list comes from a sample in which the highest values are over-represented; it also holds close analogues and randomly drawn compounds.
Answer rule not met if PER2::LUC luminescence is under 1, and rule met if it is 1 or more.

Look over these answered cases.
COMPOUND	ASSIGNED_CLASS
NC(=O)C[n+]1cccc(C(=O)O)c1	rule met
O=C(c1ccc(CN2CCOCC2)cc1)N1CCN(C2CC2)CC1	rule not met
COc1cc2c3cc1Oc1c(OC)c(OC)cc4c1[C@@H](Cc1ccc(OC(=O)c5ccc([N+](=O)[O-])cc5)c(c1)Oc1ccc(cc1)C[C@@H]3N(C)CC2)N(C)CC4	rule not met
CCCCN(CCCC)C(=O)CN1C[C@H](c2ccc3c(c2)OCO3)[C@@H](C(=O)O)[C@@H]1c1ccc(OC)cc1	rule met
CCOc1ccc(Oc2ccc(OCc3cc(F)ccc3F)cc2)c(N)c1	rule not met
N#Cc1nccc(Oc2cccc(-c3ccc(CN)cc3)c2)n1	rule met
CN(c1nccc(=O)[nH]1)C1CCN(c2nc3ccccc3n2Cc2ccc(F)cc2)CC1	rule met
NC1(C(=O)O)C[C@@H](C(=O)O)[C@H](C(=O)O)C1 (racemic)	rule not met
O=C(O)c1cc(=O)c2cc(Cl)ccc2[nH]1	rule not met
CO/S(=N\S(=O)(=O)c1ccc(Cl)cc1)c1ccc([N+](=O)[O-])cc1 (configuration not stated)	rule met

Attention now turns to another entry.
// inclusive: PER2::LUC luminescence at least 1? input: OC1c2ccccc2N=C2CCCN21 (configuration not stated)
rule not met

----------
- Test system: mPer2Luc MEF
- PROCEDURE_DETAILS: PER2::LUC luminescence relative to vehicle control (fold of vehicle); higher = higher PER2::LUC reporter signal
- EXPERIMENTAL_SETUP: time after treatment 30 h; 10 µM
In all, about 5,300 compounds were measured (“PER2::LUC luminescence relative to vehicle control”: median about 0.96, highest 2% from about 1.3 on). This excerpt belongs to a sample that is enriched for the highest values.
Answer rule not met if PER2::LUC luminescence is under 0.9, and rule met if it is 0.9 or more.

Look over these answered cases.
COMPOUND	ASSIGNED_CLASS
O=C1CCC(c2ccccc2)(C2CCN(Cc3ccccc3)CC2)C(=O)N1 (stereo unspecified)	rule not met
COc1ccc(-c2cc(=O)c3c(OC(C)=O)cc(OC(C)=O)cc3o2)cc1	rule met
COc1ccc(C(OCCN2CCC[C@H](C(=O)O)C2)(c2ccc(OC)cc2)c2ccc(OC)cc2)cc1	rule met
COc1cc(C)c2c(=O)cc(-c3ccccc3)oc2c1	rule met
O=c1ccc2cccc(O)c2[nH]1	rule met
CC(C)(C)c1ccc(S(=O)(=O)Nc2ccc(-n3ccnc3)cc2)cc1	rule met

// inclusive: PER2::LUC luminescence at least 0.9? input: C/C=C\c1ccc(OC)cc1
rule met

// inclusive: PER2::LUC luminescence at least 0.9? input: OCc1ccc(-c2ccc(-c3ccc(CO)s3)o2)s1
rule met

// inclusive: PER2::LUC luminescence at least 0.9? input: C=CC(C1=CC(=O)C(OC)=CC1=O)c1ccc(OC)cc1 (stereo unspecified)
rule met

----------
- Test system: mPer2Luc MEF
- PROCEDURE_DETAILS: PER2::LUC luminescence relative to vehicle control (fold of vehicle); higher = higher PER2::LUC reporter signal
- EXPERIMENTAL_SETUP: time after treatment 30 h; 10 µM
The full ranking holds about 5,300 compounds; the median of “PER2::LUC luminescence relative to vehicle control” is about 0.96, and the highest 2% start at about 1.3. The list comes from a sample in which the highest values are over-represented; it also holds close analogues and randomly drawn compounds.
Listed below: PER2::LUC luminescence values for each entry.
Form field (numeric): enter value without unit.

Some solved entries appear below for comparison.
COMPOUND	ENDPOINT_LABEL	RESULT_NUMBER
CC(=O)O[C@H]1CC[C@]2(C)C3CC[C@@]4(C)[C@H](C5CC(C6OC6(C)C)OC5O)CC[C@]4(C)C3=CC[C@H]2C1(C)C (some centres undefined)	PER2::LUC luminescence	1.08
O=c1cc(-c2ccc(O)cc2)oc2cc(O[C@@H]3O[C@H](CO)[C@@H](O)[C@H](O)[C@H]3O)cc(O)c12	PER2::LUC luminescence	1.43
C[C@@H]1O[C@@H](O[C@H]2[C@H](Oc3cc(O)c4c(=O)cc(-c5ccc(O)cc5)oc4c3)O[C@H](CO)[C@@H](O)[C@@H]2O)[C@H](O)[C@H](O)[C@H]1O	PER2::LUC luminescence	0.85

Endpoint output: PER2::LUC luminescence of COc1cc2ncnc(Nc3cccc(I)c3)c2cc1OC . Value?
0.774

----------
Listed below: PER2::LUC luminescence values for each entry.
- Test system: mPer2Luc MEF
- PROCEDURE_DETAILS: PER2::LUC luminescence relative to vehicle control (fold of vehicle); higher = higher PER2::LUC reporter signal
- EXPERIMENTAL_SETUP: time after treatment 24 h; 10 µM
Whole data set: some 5,300 compounds, median “PER2::LUC luminescence relative to vehicle control” near 0.96, cut for the highest 2% near 1.3. Only a selection was taken, and the highest values are over-represented in it overall.
Form field (numeric): enter value without unit.

COMPOUND	RESULT_NUMBER
COc1ccc(-c2oc3ccccc3c(=O)c2OC)cc1	0.987
COc1ccc2cc1Oc1ccc(cc1)C[C@H]1c3cc(c(OC)cc3CCN1C)Oc1c(OC)c(OC)c(OC)c3c1[C@H](C2)N(C)CC3	0.81
COc1cc(OC)cc(C(=O)Nc2ccc(Cl)c(-c3nc4ccc(N(C)C)cc4[nH]3)c2)c1	0.977
O=C(/C=C/c1ccc(O)cc1)CC(=O)/C=C/c1ccc(O)cc1	1.1
COc1ccc2ccc(=O)oc2c1	1
COc1ccc(/C=C/C(=O)c2cc(O)ccc2O)cc1	0.754

Endpoint output: PER2::LUC luminescence of COc1cc(-c2ccc(=O)[nH]n2)ccc1OC(F)F . Value?
0.97

Endpoint output: PER2::LUC luminescence of O=C(/C=C/c1ccccc1)c1ccc(O)cc1 . Value?
1.33

----------
- System: mPer2Luc MEF
- PROCEDURE_DETAILS: PER2::LUC luminescence relative to vehicle control (fold of vehicle); higher = higher PER2::LUC reporter signal
- EXPERIMENTAL_SETUP: time after treatment 30 h; 10 µM
The full ranking holds about 5,300 compounds; the median of “PER2::LUC luminescence relative to vehicle control” is about 0.96, and the highest 2% start at about 1.3. The sample holds the highest values, similar compounds and a random draw of the others, so the mix is not that of the screen.
Answer 0 (no) if PER2::LUC luminescence is under 1, and 1 (yes) if it is 1 or more.

Look over these answered cases.
QUERY_SMILES	ASSIGNED_CLASS
COc1ccc2cc(CCC(C)=O)ccc2c1	1 (yes)
COc1ccc2c(c1)OC/C(=C\c1ccc(OC)c(O)c1)C2=O	0 (no)
C[C@@H]1O[C@@H](OC[C@H]2O[C@@H](Oc3cc(O)c4c(=O)cc(-c5ccc(O)cc5)oc4c3)[C@H](O)[C@@H](O)[C@@H]2O)[C@H](O)[C@H](O)[C@H]1O	0 (no)
N[C@@]1(C(=O)O)CN[C@@H](C(=O)O)C1	0 (no)

// inclusive: PER2::LUC luminescence at least 1? input: COc1ccc2cc([C@@H](C)C(=O)O)ccc2c1
1 (yes)

----------
- Test system: mPer2Luc MEF
- PROCEDURE_DETAILS: PER2::LUC luminescence relative to vehicle control (fold of vehicle); higher = higher PER2::LUC reporter signal
- EXPERIMENTAL_SETUP: time after treatment 30 h; 10 µM
In all, about 5,300 compounds were measured (“PER2::LUC luminescence relative to vehicle control”: median about 0.96, highest 2% from about 1.3 on). The full list was thinned out, with the highest values kept by preference.
Answer F if PER2::LUC luminescence is under 1, and T if it is 1 or more.

COMPOUND	ASSIGNED_CLASS
O=C(NCc1nc2ccccc2c(=O)n1-c1ccc(F)cc1)Nc1ccc(Cl)c(C(F)(F)F)c1	F
O=C1NC(=O)/C(=C\c2ccc3nccnc3c2)S1	T
CCN(CC)CCNC(=O)c1ccc(N)cc1	T
CCCC[C@@H](C)/C=C(C)/C=C(\C)C(=O)NC1=C[C@@](O)(/C=C/C=C/C=C/C(=O)NC2=C(O)CCC2=O)[C@@H]2O[C@@H]2C1=O	F
O=C1NC(=O)/C(=C/c2cccc(C(F)(F)F)c2)S1	T
O=C[C@H](O)[C@@H](O)[C@H](O)CO (racemic)	T
C[C@@H]1O[C@@H](O[C@H]2[C@H](Oc3cc(O)c4c(=O)c(O)c(-c5ccc(O)cc5)oc4c3)O[C@H](CO)[C@@H](O)[C@@H]2O)[C@H](O)[C@H](O)[C@H]1O	F
CCN(CC)CCNC(=O)COc1ccc(OC)cc1	T

Attention now turns to another entry.
// inclusive: PER2::LUC luminescence at least 1? input: C=CCCCCCCCCCCCC(O)CC(O)COC(C)=O (stereo not given)
F

Measured values drawn from the supplement of paper PMC9334596 for this set.
